# FACS-Seq fitted mean (log10) per record follows
B1: library; a variant is named by its letters at N, in order (parent)
chain: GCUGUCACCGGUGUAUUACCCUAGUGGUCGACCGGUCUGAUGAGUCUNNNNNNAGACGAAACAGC

Variants of: B1
Experiment: FACS-Seq fitted mean relative fluorescence mCherry/BFP without ligand (log10 relative fluorescence); ligand: hypoxanthine (xanthine aptamer); higher = higher reporter protein expression
Settings: HEK293T, ligand present: no

>  <Mutation>
UUUAUA

>  <FACS-Seq fitted mean (log10)>
-0.64

$$$$
>  <Mutation>
GAAACA

>  <FACS-Seq fitted mean (log10)>
0.6

$$$$
>  <Mutation>
CUUUAG

>  <FACS-Seq fitted mean (log10)>
0.52

$$$$
>  <Mutation>
GUAAAA

>  <FACS-Seq fitted mean (log10)>
0.614

$$$$
>  <Mutation>
GGGGAA

>  <FACS-Seq fitted mean (log10)>
0.623

$$$$
>  <Mutation>
AACGGU

>  <FACS-Seq fitted mean (log10)>
0.118

$$$$
>  <Mutation>
AAGGAA

>  <FACS-Seq fitted mean (log10)>
0.159

$$$$
>  <Mutation>
AGCCGA

>  <FACS-Seq fitted mean (log10)>
0.399

$$$$
>  <Mutation>
CGUAUA

>  <FACS-Seq fitted mean (log10)>
0.422

$$$$
>  <Mutation>
GGGGCU

>  <FACS-Seq fitted mean (log10)>
-0.598

$$$$
>  <Mutation>
GGAUAC

>  <FACS-Seq fitted mean (log10)>
0.616

$$$$
